Source: patent US10913781B2

study system: PAR2 (Homo sapiens, UniProt P55085)
assay method text: Agonist | (%)^‡
Design: SW620 colon adenocarcinoma cells that endogenously express PAR2; endogenous in cells; host or cells: SW620 (in A7 the SW620 cells were additionally stably transfected with PAR1)
* marks the point of attachment. Palmitoyl = CCCCCCCCCCCCCCCC(=O)*

{"substance": "P2pal-18F: palmitoylated PAR2 pepducin, K287 to F, first three residues (R267, M268, L269) deleted; SEQ ID NO:19 (Palmitoyl-RSSAMDENSEKKRKRAIF-NH2)", "unit descriptor": "%", "Agonist | (%)^‡": 35}
{"substance": "P2pal-14GF: N-terminally truncated palmitoylated PAR2 pepducin, M274 to G and K287 to F; SEQ ID NO:23 (Palmitoyl-GDENSEKKRKRAIF-NH2)", "unit descriptor": "%", "Agonist | (%)^‡": 8}
{"substance": "P2pal-18Q: palmitoylated PAR2 pepducin, R284 replaced by glutamine; SEQ ID NO:22 (Palmitoyl-RSSAMDENSEKKRKQAIK-NH2)", "unit descriptor": "%", "Agonist | (%)^‡": 16}
{"substance": "P2pal-18SF: palmitoylated PAR2 pepducin, R284 to S and K287 to F; SEQ ID NO:21 (Palmitoyl-RSSAMDENSEKKRKSAIF-NH2)", "unit descriptor": "%", "Agonist | (%)^‡": 30}
